The measurements presented in this section are drawn from patent US7713987B2.

Below, each entry is listed alongside its reported half-life.
# PROTOCOL DESCRIPTION: Metabolic stability of prodrugs in human hepatic microsomes
# Format: in vitro ADME
# ASSAY SETUP: in the presence of NADPH, second value of cell, read-out: T1/2 (half-life of prodrug)

{"columns": ["COMPOUND", "half-life"],
 "data": [
  ["COc1cc(N(C(=O)OCC2CCCCN2C)c2ncc(F)c(Nc3ccc4c(n3)NC(=O)C(C)(C)O4)n2)cc(OC)c1OC (stereo not drawn)", "< 5 min"],
  ["COc1cc(N(C(=O)N[C@H](C(=O)OC(C)(C)C)C(C)C)c2ncc(F)c(Nc3ccc4c(n3)NC(=O)C(C)(C)O4)n2)cc(OC)c1OC", "10 min"],
  ["COc1cc(N(C(=O)OCCN2CCOCC2)c2ncc(F)c(Nc3ccc4c(n3)NC(=O)C(C)(C)O4)n2)cc(OC)c1OC", "< 5 min"]
]}

---

# PROTOCOL DESCRIPTION: Metabolic stability of prodrugs in rat hepatic microsomes
# Format: in vitro ADME
# ASSAY SETUP: in the presence of NADPH, first value of cell, read-out: T1/2 (half-life of prodrug)
MEASURED PROPERTY: half-life

{"columns": ["COMPOUND", "RESULT"],
 "data": [
  ["COc1cc(N(C(=O)OCC2CCCCN2C)c2ncc(F)c(Nc3ccc4c(n3)NC(=O)C(C)(C)O4)n2)cc(OC)c1OC (stereo not drawn) [Example 3]", "< 5 min"],
  ["COc1cc(N(C(=O)N[C@H](C(=O)OC(C)(C)C)C(C)C)c2ncc(F)c(Nc3ccc4c(n3)NC(=O)C(C)(C)O4)n2)cc(OC)c1OC [Example 8]", "35 min"],
  ["COc1cc(N(C(=O)OCCN2CCOCC2)c2ncc(F)c(Nc3ccc4c(n3)NC(=O)C(C)(C)O4)n2)cc(OC)c1OC [Example 2]", "< 5 min"]
]}
